Just for reference, patent US20230416329A1 is where these values come from.

I'd appreciate it if you could supply IC50 values for the items below.
target: bovine trypsin (Bos taurus)
Sequence (P00760 24-246): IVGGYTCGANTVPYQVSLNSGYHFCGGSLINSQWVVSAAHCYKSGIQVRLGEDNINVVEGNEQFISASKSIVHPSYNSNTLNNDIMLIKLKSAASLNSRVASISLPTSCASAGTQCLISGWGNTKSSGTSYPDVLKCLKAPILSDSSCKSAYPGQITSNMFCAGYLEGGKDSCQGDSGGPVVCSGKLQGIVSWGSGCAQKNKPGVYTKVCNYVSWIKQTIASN
procedureText: Trypsin inhibitory activity of peptides (BApNA hydrolysis, OD405; IC50, Ki, residual activity)
Assay type: biochemical
experimentalContext: trypsin 50 nM, BApNA 1.22 mM; read-out: IC50
Bridge positions count the residues as written; N and C are the ends. Peptide text beside a SMILES is read from it.

For orientation, consider the following solved cases.
INSERT INTO results (molecule, target, measuredattribute, result) VALUES
  ('CC[C@H](C)[C@@H]1NC(=O)[C@@H]2CCCN2C(=O)[C@@H]2CCCN2C(=O)[C@H]([C@@H](C)CC)NC(=O)[C@H](CO)NC(=O)[C@H](CCCCN)NC(=O)[C@H]([C@@H](C)O)NC(=O)[C@H](CCC(N)=O)NC(=O)[C@H](CCCNC(=N)N)NC(=O)CNC(=O)[C@@H](N)CSSC[C@@H](C(=O)N[C@@H](Cc2ccccc2)C(=O)O)NC1=O [BT54] (H-CGRQTKSIPPICF-OH; disulfide 1-12; C-terminus assumed)', 'bovine trypsin (Bos taurus)', 'IC50', '0.06 µM'),
  ('CC[C@H](C)[C@@H]1NC(=O)[C@H](CO)NC(=O)[C@H](CCCCN)NC(=O)[C@H]([C@@H](C)O)NC(=O)[C@H](Cc2c[nH]c3ccccc23)NC(=O)[C@H](CCCNC(=N)N)NC(=O)CNC(=O)[C@@H](N)CSSC[C@@H](C(=O)O)NC(=O)[C@@H]2CCCN2C(=O)[C@H](CCCCN)NC(=O)[C@@H]2CCCN2C(=O)[C@@H]2CCCN2C1=O [BT38] (H-CGRWTKSIPPKPC-OH; disulfide 1-13 (inferred); N-terminus and C-terminus assumed)', 'bovine trypsin (Bos taurus)', 'IC50', '> 50 µM');

Now examine the next entry.
Sample CC[C@H](C)[C@@H]1NC(=O)[C@H](CO)NC(=O)[C@H](CCCCN)NC(=O)[C@H]([C@@H](C)O)NC(=O)[C@H](Cc2c[nH]c3ccccc23)NC(=O)CNC(=O)[C@@H](N)CSSC[C@@H](C(=O)O)NC(=O)[C@@H]2CCCN2C(=O)[C@H](CCCCN)NC(=O)[C@@H]2CCCN2C(=O)[C@@H]2CCCN2C1=O [BT37] (H-CGWTKSIPPKPC-OH; disulfide 1-12) ; IC50 observed: > 50 µM
